Relative remaining activity overview
- System: Enzyme A″
- TEST METHOD NOTES: Effect of metals and inhibitors on enzyme activity, PMS-DCIP assay
- Format: biochemical, G. oxydans DSM No. 4025
- CONDITION NOTES: 5 mM compound, 30 minutes at 25° C.; substrate L-Sorbose; relative to blank incubation
API doc: respond with a numeric literal and nothing else, no unit.

Below, each entry is followed by its recorded Relative remaining activity result.
CHEM SMILES	TARGET OF ASSAY	Relative remaining activity
[Cl][Fe]([Cl])[Cl]	Enzyme A″	44.7
[Cl-].[Cl-].[Mg+2]	Enzyme A″	78.8

Input: Which Relative remaining activity is reported for this compound? `[Cl][Fe][Cl]`
Output: 0.0

Input: Value lookup for Relative remaining activity; key = `O=S(=O)([O-])[O-].[Ni+2]`
Output: 90.3

Input: Relative remaining activity lookup needed for `[Cl][Mn][Cl]` , thanks.
Output: 0.0

* * *

- Test system: Enzyme A′
- TEST METHOD NOTES: Effect of metals and inhibitors on enzyme activity, PMS-DCIP assay
- Type: biochemical, G. oxydans DSM No. 4025
- CONDITION NOTES: 5 mM compound, 30 minutes at 25° C.; substrate n-Propanol; relative to blank incubation
PROPERTY: Relative remaining activity
Simply state the number, no unit and no words.

Input: Form entry - test system: Enzyme A′; read-out: Relative remaining activity; compound: [Cl-].[Cl-].[Zn+2] [ZnCl2]
Output: 6.1

Input: Enzyme A′ / Relative remaining activity / [Cl][Cu][Cl] [CuCL2] : value?
Output: 0.0

* * *

- System: Enzyme B
- TEST METHOD NOTES: Effect of metals and inhibitors on enzyme activity, PMS-DCIP assay
- Assay type: biochemical, G. oxydans DSM No. 4025
- CONDITION NOTES: 5 mM compound, 30 minutes at 25° C.; substrate D-Sorbitol; relative to blank incubation
PROPERTY: Relative remaining activity
// no unit, no text: just the number

Record excerpt, results attached:
CHEM SMILES	Relative remaining activity
[Cl-].[Cl-].[Mg+2]	100.0
[Cl][Mn][Cl]	0.0
[Cl][Fe][Cl]	5.9

Input: Given the entry `[Cl][Fe]([Cl])[Cl]` , what Relative remaining activity was observed with Enzyme B?
Output: 0.0

Input: Observed Relative remaining activity on Enzyme B for `[Ca+2].[Cl-].[Cl-]` , please.
Output: 102.9

Input: Form field: Relative remaining activity recorded for `[Cl][Cu][Cl]` with Enzyme B (enter value)
Output: 0.0

Input: Which Relative remaining activity is reported with Enzyme B for this entry: `O=S(=O)([O-])[O-].[Ni+2]` ?
Output: 79.4

Input: Give the reported Relative remaining activity for `[Cl-].[Cl-].[Zn+2]` (system: Enzyme B).
Output: 0.0

* * *

- Test system: Enzyme A
- TEST METHOD NOTES: Effect of metals and inhibitors on enzyme activity, PMS-DCIP assay
- Assay type: biochemical, G. oxydans DSM No. 4025
- CONDITION NOTES: 5 mM compound, 30 minutes at 25° C.; substrate L-Sorbose; relative to blank incubation
Below: a set of entries, each annotated with reported Relative remaining activity.
Output spec: single numeric token, no unit.

Known results for molecules:
CHEM SMILES	MEAS VALUE
[Ca+2].[Cl-].[Cl-]	98.8
O=S(=O)([O-])[O-].[Ni+2]	42.7
[Cl-].[Cl-].[Mg+2]	96.3
[Cl-].[Cl-].[Zn+2]	1.5
[Cl][Mn][Cl]	0.0
[Cl][Fe][Cl]	16.6

Input: What Relative remaining activity value was documented for this molecule, `[Cl][Fe]([Cl])[Cl]` ?
Output: 7.8

Input: Field request: Relative remaining activity | item: `[Cl][Cu][Cl]`
Output: 0.0

The measured values listed here are drawn from patent US6730503B1.
